Biological target: human mGlu2 receptor (Homo sapiens)
Construct: expressed in transfected cells; host or cells: CHO cells (membrane preparation)
Test: [35S]GTPγS binding assay (mGluR2 negative allosteric modulation)
Type: biochemical
Conditions: relative maximal effect: maximal % inhibition relative to the control glutamate response; read-out: GTPγS - hmGluR2 anGT Emax
VALUE TYPE: Emax (%)
Give bare numbers, in %.

// lookup Emax for Cc1cc(N2C[C@H](C)n3ncc(-c4ccnc(N5CCC5)c4)c3C2=O)ccc1C(F)(F)F [compound 260]
105

Emax lookup needed for Cc1ccc(-c2cnn3c2C(=O)N(c2ccc(C(F)(F)F)cc2)C[C@@H]3C)cn1 [compound 36] , thanks.
100

Go through the items and report each one's Emax.
1. Cc1cc(-c2cnn3c2C(=O)N(c2ccc(Cl)c(Cl)n2)C[C@@H]3C)ccn1 [compound 202]
2. COc1cc(-c2cnn3c2C(=O)N(c2ccc(C(F)(F)F)c(C#N)c2)C[C@@H]3C)ccn1 [compound 88]
3. Cc1cc(-c2cnn3c2C(=O)N(c2ccc(C(F)(F)F)c(C#N)c2)C[C@@H]3C)ccn1 [compound 13]
4. Cc1cc(-c2cnn3c2C(=O)N(c2ccc(Cl)c(Cl)c2)C[C@@H]3C)cc[n+]1[O-] [compound 170]
5. COc1cc(-c2cnn3c2C(=O)N(c2ccc(C(F)(F)F)c(OC)c2)C[C@@H]3C)ccn1 [compound 180]

[103, 102, 103, 107, 106]

Look at each compound and report its Emax.
1. COc1cc(-c2cnn3c2C(=O)N(c2ccc(C(F)(F)F)c(Cl)c2)C[C@@H]3C)ccn1 [compound 104]
2. Cc1cc(-c2cnn3c2C(=O)N(c2ccc(Br)cc2)C[C@@H]3C)ccn1 [compound 139]
3. Cc1cc(-c2cnn3c2C(=O)N(c2cc(F)cc(OC(F)F)c2)C[C@@H]3C)ccn1 [compound 69]
4. Cc1cc(-c2cnn3c2C(=O)N(c2ccc(F)c(C(F)(F)F)c2)C[C@@H]3C)ccn1 [compound 67]

1: 108; 2: 106; 3: 103; 4: 104

* * *

So I've got a bunch of compounds here, and I need their Emax values.
Molecular target: human mGlu2 receptor (Homo sapiens, UniProt Q14416)
Construct: expressed in transfected cells; host or cells: CHO cells (membrane preparation)
Sequence (Q14416 19-872): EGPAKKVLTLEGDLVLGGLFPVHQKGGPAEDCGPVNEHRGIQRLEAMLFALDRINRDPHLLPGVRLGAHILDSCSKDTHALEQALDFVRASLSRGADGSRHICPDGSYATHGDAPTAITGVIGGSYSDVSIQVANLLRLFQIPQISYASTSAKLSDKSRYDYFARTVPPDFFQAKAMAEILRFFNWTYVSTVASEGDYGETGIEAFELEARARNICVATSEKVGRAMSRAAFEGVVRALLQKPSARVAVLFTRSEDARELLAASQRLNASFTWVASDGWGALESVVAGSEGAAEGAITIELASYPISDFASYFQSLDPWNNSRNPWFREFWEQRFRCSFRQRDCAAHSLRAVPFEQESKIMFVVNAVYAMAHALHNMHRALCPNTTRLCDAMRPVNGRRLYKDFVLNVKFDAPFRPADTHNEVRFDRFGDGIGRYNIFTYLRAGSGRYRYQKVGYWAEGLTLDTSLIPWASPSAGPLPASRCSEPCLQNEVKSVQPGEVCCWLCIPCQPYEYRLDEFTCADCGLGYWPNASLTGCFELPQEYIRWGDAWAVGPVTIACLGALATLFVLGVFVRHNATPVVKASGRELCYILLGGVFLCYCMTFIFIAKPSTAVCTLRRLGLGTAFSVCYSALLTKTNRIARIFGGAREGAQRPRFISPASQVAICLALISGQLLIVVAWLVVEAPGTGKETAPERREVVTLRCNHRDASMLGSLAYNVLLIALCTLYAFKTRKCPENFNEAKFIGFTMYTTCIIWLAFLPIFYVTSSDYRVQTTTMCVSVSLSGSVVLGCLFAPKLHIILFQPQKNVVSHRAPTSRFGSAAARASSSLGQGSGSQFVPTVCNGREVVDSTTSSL
Experiment: [35S]GTPγS binding assay (mGluR2 negative allosteric modulation)
Assay type: biochemical
Conditions: relative maximal effect: maximal % inhibition relative to the control glutamate response; read-out: GTPγS - hmGluR2 anGT Emax
One number for each entry, in %.

Name the recorded Emax for Cc1cc(-c2cnn3c2C(=O)N(c2cccc(C(C)O)c2)C[C@@H]3C)ccn1 (stereo partly drawn) .
100

Here are 6 compounds. What values of Emax were reported for them?
1. Cc1cc(-c2cnn3c2C(=O)N(c2ccc(F)c(C)c2)C[C@@H]3C)ccn1
2. COc1nc(N2C[C@H](C)n3ncc(-c4ccnc(N5CCC5)c4)c3C2=O)ccc1C(F)(F)F
3. COc1cc(N2C[C@H](C)n3ncc(-c4ccncc4)c3C2=O)ccc1C(F)(F)F
4. Cc1cc(-c2cnn3c2C(=O)N(c2ccc(C(F)(F)F)cc2)C[C@@H]3C)ccn1
5. Cc1cc(-c2cnn3c2C(=O)N(c2ccc(C(F)(F)F)c(F)c2)CC3)ccn1
6. Cc1cc(-c2cnn3c2C(=O)N(c2ccc(C(F)(F)F)cn2)CC3)ccn1

1: 107; 2: 104; 3: 103; 4: 106; 5: 100; 6: 92

// each compound listed below needs its Emax
1. Cc1cc(-c2cnn3c2C(=O)N(c2cc(C)c(C(F)(F)F)cn2)C[C@@H]3C)ccn1
2. C[C@H]1CN(c2ccc(C(F)(F)F)c(Cl)c2)C(=O)c2c(-c3ccnc(CF)c3)cnn21

1: 103; 2: 111

These measurements were taken from patent US10106542B2.
